Values from patent US6147076A

Can you tell me IC90 for the items I'm about to list?
test system: CCRF-CEM/VM-1 cells; experiment: Cytotoxicity toward VM-26-resistant CCRF-CEM/VM-1 cells (mutated Topo II gene); assay type: cell-based, human; conditions: ccrf-cem/vm-1 cells
Write the number in µM without appending the unit.

Dear colleague, I am looking for the recorded IC90 of the following compound: C=CCC12CC3c4nc5ccccc5c(=O)n4C(C)C(=O)N3C1N(C(C)=O)c1ccccc12 (centres unmarked) [5-N-Ac"Allyl" ardeemin, "Allyl" 5-N-acetylardeemin] 916

Dear colleague, I am looking for the recorded IC90 of the following compound: C=CC(C)(C)C12CC3c4nc5ccccc5c(=O)n4C(C)C(=O)N3C1Nc1ccccc12 (centres unmarked) [Ardeemin] 88.8
